ASSAYED TARGET: BCL-XL (Homo sapiens, UniProt Q07817)
Sequence (Q07817 1-212): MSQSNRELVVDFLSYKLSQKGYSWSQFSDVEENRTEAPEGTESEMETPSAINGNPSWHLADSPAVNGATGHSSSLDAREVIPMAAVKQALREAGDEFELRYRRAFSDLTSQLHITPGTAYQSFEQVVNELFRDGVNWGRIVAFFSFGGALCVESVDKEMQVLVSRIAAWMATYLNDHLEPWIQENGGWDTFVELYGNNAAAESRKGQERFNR
ASSAY NOTES: Protein-protein interaction assay BCL-XL/Bad BH3 peptide, TR-FRET (BCL-XL assay, Assay 2)
Assay type: binding
TEST CONTEXT: His-BCL-XL / Bad BH3 peptide, median
Catalogue of IC50 readings, one per entry.

COMPOUND	IC50
Cc1c2c(nn1C)CNCc1ccccc1Cn1c(C(=O)O)c(CCCOc3cccc4ccccc34)c3cccc-2c31 (single isomer, unassigned; enantiomer 1) [Example 12]	> 20 µM
Cc1c2c(nn1C)COCc1ncccc1Cn1c(C(=O)O)c(CCCOc3cccc4ccccc34)c3cccc-2c31 (single isomer, unassigned; enantiomer 1) [Example 8]	> 20 µM
Cc1c2c(nn1C)COCc1ccccc1Cn1c(C(=O)O)c(CCCOc3cccc4ccccc34)c3cccc-2c31 (single isomer, unassigned; enantiomer 1) [Example 2]	> 20 µM
Cc1nn(C)c2c1-c1c(F)ccc3c(CCCOc4cccc5c4CCC5)c(C(=O)O)n(c13)Cc1ccccc1COC2 (racemic) [Example 84]	> 20 µM
Cc1c2c(nn1C)COCc1nccnc1Cn1c(C(=O)O)c(CCCOc3cccc4cc(F)ccc34)c3ccc(Cl)c-2c31 (racemic) [Example 93]	> 20 µM
CCc1nn(C)c2c1-c1c(F)ccc3c(CCCOc4cccc5cc(F)ccc45)c(C(=O)O)n(c13)Cc1ccccc1COC2 (racemic) [Example 90]	> 20 µM

Provenance of the data: patent US20210253598A1
